tested on: LXRa homodimer (NR concentration 270 nM); test: PBM binding z-score (relative to random genomic background probes); higher = stronger binding; sequences stand for … in GC…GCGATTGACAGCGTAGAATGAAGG
Readout name: PBM binding z-score
One number for each entry.

Known results for sequences:
# Biosequence, Readout name, Val
data = [
    ("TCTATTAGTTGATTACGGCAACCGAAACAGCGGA", "PBM binding z-score", 0.651),
    ("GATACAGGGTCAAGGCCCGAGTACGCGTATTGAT", "PBM binding z-score", -0.361),
    ("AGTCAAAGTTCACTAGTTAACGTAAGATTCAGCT", "PBM binding z-score", 2.97),
]

Would you mind giving PBM binding z-score for every sequence in the list below?
1. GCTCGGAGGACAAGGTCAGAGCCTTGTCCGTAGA
2. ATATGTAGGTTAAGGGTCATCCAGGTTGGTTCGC
3. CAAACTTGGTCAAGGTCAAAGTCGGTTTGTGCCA
4. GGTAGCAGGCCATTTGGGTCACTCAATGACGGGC
5. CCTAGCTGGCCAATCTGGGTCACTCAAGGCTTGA
6. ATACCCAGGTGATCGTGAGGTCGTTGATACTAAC
7. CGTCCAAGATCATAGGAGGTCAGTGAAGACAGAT
8. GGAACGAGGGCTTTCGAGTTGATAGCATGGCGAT

1. -0.456
2. 2.83
3. 2.94
4. -0.186
5. -0.714
6. 0.85
7. 1.2
8. -0.465

Hello, the source for this data is the supplement of paper PMC6555819, in case you need it.
